Biological target: T1, rhNav1.7α + β1-β2-β3 (rhesus monkey)
T1 construct: also called rhNav1.7-beta1-beta2-beta3; rhesus Nav1.7α
Test: binding FACS, CHO FlpIn cells
I'd be grateful if you could share measured pEC50 for these entries.
Give bare numbers, as −log10 of the molar value.

Example cases with answers are listed next.
binder	outcome.measure	measured.result
F010302345 (VHH) VHH: EVQLVESGGGVVQPGGSLRLSCAASHRQFIRDVFTGWYRQAPGKQRELVARIYEGGNTQYADSAKGRFTISRDNAKKTVYLQMNSLRPEDTALYYCLFSGTISTGREYRSGDYWGQGTLVTVSS	pEC50	7.92
F010301880 (VHH, G54S vs F0103464B09 (Kabat)) VHH: EVQLVESGGGLVQPGGSLRLSCATTSRAFIRDVFTGWYRRVPGKERELVARIYNSGNTNYADFAKGRFSISRDNAKKMVTLRMSNLKPEDTGVYYCLFSGTINTGREYRSGDYWGQGTLVTVSS	pEC50	7.62

Which measured pEC50 value corresponds to F010301888 (VHH, S26H vs F0103464B09 (Kabat)) VHH: EVQLVESGGGLVQPGGSLRLSCATTHRAFIRDVFTGWYRRVPGKERELVARIYNGGNTNYADFAKGRFSISRDNAKKMVTLRMSNLKPEDTGVYYCLFSGTINTGREYRSGDYWGQGTLVTVSS ?
8.06
